Target: OR10/OR7 (Anopheles gambiae, UniProt B5U0U7+Q7QCC7)
Sequence (Q7QCC7 whole entry): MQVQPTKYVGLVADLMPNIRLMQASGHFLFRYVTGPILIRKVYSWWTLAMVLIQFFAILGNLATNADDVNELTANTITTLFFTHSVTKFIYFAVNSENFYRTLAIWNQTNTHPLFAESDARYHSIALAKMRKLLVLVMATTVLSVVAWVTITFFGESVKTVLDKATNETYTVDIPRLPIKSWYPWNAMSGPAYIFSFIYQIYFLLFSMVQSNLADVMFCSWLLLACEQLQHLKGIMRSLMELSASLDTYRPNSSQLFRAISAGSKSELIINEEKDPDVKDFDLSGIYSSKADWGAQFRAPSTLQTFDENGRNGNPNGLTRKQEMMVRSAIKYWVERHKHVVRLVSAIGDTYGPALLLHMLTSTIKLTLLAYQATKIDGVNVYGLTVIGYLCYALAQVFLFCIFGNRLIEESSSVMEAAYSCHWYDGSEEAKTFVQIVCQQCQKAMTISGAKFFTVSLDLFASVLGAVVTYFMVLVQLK
Sequence (B5U0U7 entry or part of it): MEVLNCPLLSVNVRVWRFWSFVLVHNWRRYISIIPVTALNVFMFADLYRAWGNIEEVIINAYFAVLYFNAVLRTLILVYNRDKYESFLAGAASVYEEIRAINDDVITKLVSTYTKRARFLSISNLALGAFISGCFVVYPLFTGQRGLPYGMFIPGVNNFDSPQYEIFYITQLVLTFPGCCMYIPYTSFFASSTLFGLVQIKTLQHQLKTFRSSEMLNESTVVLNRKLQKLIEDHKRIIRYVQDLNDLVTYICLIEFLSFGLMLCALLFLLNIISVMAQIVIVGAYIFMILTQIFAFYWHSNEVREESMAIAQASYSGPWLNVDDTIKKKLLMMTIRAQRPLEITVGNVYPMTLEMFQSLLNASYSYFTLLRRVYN
Experiment: Ca2+-imaging of stable HEK293T cell line OR10/OR7
Assay type: cell-based
Settings: HEK-293T; compound applied at 4 μM; read-out: Percent Inhibition OR10 OR7
Experimental: Stable cell lines OR1/OR7, OR2/OR7, OR8/OR7, OR10/OR7, OR28/OR7 and TRPM8 were generated from HEK293T cells. […] Stable cell lines were cultured in 10 cm dishes, and confluent cells (70-80%) were trypsinized. […] 20 μL of Ca-4 dye was loaded into each well for 1.5 hr at room temperature in the dark, and the dye-loaded plates were subjected to Ca^2+-imaging using a Hamamatsu FDSS6000 real time fluorescence plate reader. […]
observable: inhibition at 4 µM

[
  {
    "compound": "CCN(CC)c1onc(-c2ccc(F)cc2)c1CN(CCCOC)C(=O)c1ccc2c(c1)OCO2",
    "measured_result": "26 to 50%"
  },
  {
    "compound": "N#Cc1ccccc1C(=O)N1CCOC(COCc2c(Cl)cccc2Cl)C1 (centres unmarked)",
    "measured_result": "26 to 50%"
  },
  {
    "compound": "C=CCNC(=O)C(NC(=O)c1cccc(C)c1)C1CCN(C(=O)c2cccc(Br)c2)CC1 (centres unmarked)",
    "measured_result": "26 to 50%"
  },
  {
    "compound": "COCCCN(CC(=O)N1CCc2sccc2C1COc1cccc(OC)c1)C(=O)Cc1ccccc1 (centres unmarked)",
    "measured_result": "< 25%"
  },
  {
    "compound": "CCN(C)c1onc(-c2ccccc2)c1CN(CCCOC)C(=O)c1ccco1",
    "measured_result": "26 to 50%"
  },
  {
    "compound": "CN(C)c1ccc(C(=O)N2CCOC(COCc3ccccc3F)C2)cc1 (centres unmarked)",
    "measured_result": "< 25%"
  },
  {
    "compound": "Cc1nn(-c2ccc(Cl)cc2)c(C)c1C(=O)NCc1ccccn1",
    "measured_result": "51 to 74%"
  },
  {
    "compound": "COc1ccc(N2CCN(C(=O)C3CC=CCC3C(=O)NCCCCc3ccccc3)CC2)cc1 (centres unmarked)",
    "measured_result": "26 to 50%"
  },
  {
    "compound": "CCOC(=O)C(c1ccc(OC)c(OC)c1)C1C=CC(NC(=O)c2ccc3c(c2)OCO3)C1 (centres unmarked)",
    "measured_result": "26 to 50%"
  },
  {
    "compound": "CCN(CC)c1onc(-c2ccccc2)c1CN(CC1CCCO1)C(=O)c1ccco1 (centres unmarked)",
    "measured_result": "< 25%"
  },
  {
    "compound": "CC(C)N(Cc1nccn1Cc1c(F)cccc1Cl)C(=O)c1ccc(Cl)cc1",
    "measured_result": "> 75%"
  },
  {
    "compound": "CCOCCCN(CC(=O)N(Cc1ccc2c(c1)OCO2)Cc1sccc1C)C(=O)NC(C)(C)C",
    "measured_result": "51 to 74%"
  },
  {
    "compound": "Cc1ccc(-c2nnc(SCCCC(=O)N3CCN(C(=O)c4cccc(F)c4)C(C)C3)n2-c2ccc(C)cc2)cc1 (centres unmarked)",
    "measured_result": "> 75%"
  },
  {
    "compound": "C=C[C@@](C)(O)CCC1C(=C)CCC2[C@@](C)(CO)CCC[C@]12C (some centres unmarked)",
    "measured_result": "51 to 74%"
  },
  {
    "compound": "COc1ccc(-c2cc(-c3ccccc3)n(C(=O)CN3CCN(Cc4ccccc4)CC3)n2)cc1",
    "measured_result": "< 25%"
  },
  {
    "compound": "COCCNC(=O)c1ccc(CSc2nnc(-c3ccc(C)cc3)n2-c2ccccc2C)cc1",
    "measured_result": "51 to 74%"
  },
  {
    "compound": "Cc1cc(N(C)C2CCCCC2)nc(SCc2cccc(C(=O)N3CCCC3)c2)n1",
    "measured_result": "26 to 50%"
  }
]
